The compounds listed here are annotated with their pIC50.
target: P-selectin (Homo sapiens, UniProt P16109); construct: amino terminal lectin, EGF, and complement regulatory-like repeats (CR) 1 and 2; test: Cell-protein assay: inhibition of binding of HL60 cells (expressing sialyl-Lewis^x) to P-selectin; details: HL60 cell binding to selectin fusion protein on magnetic beads
Sequence (P16109 42-321): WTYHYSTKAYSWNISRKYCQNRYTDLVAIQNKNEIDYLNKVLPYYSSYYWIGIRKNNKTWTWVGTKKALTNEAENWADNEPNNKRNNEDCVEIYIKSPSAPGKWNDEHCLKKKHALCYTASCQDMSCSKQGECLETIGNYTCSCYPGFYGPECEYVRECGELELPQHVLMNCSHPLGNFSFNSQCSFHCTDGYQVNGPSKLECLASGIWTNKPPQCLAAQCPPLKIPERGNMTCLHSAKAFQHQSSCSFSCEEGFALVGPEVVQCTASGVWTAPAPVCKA
Friendly reminder that pIC50 comes from taking -log10 of the concentration in mol/L.

Worked examples, 2 compounds total:
O=C(O)Cc1cccc(-c2cc(Cc3ccc(Oc4ccc(Cc5ccc(O[C@H]6O[C@H](CO)[C@@H](O)[C@H](O)[C@@H]6O)c(-c6cccc(CC(=O)O)c6)c5)cc4)cc3)ccc2O[C@H]2O[C@H](CO)[C@@H](O)[C@H](O)[C@@H]2O)c1 [C] :: 3.15
O=C(O)Cc1cccc(-c2cc(Cc3ccc(Cc4ccc(O[C@H]5O[C@H](CO)[C@@H](O)[C@H](O)[C@@H]5O)c(-c5cccc(CC(=O)O)c5)c4)cc3)ccc2O[C@H]2O[C@H](CO)[C@@H](O)[C@H](O)[C@@H]2O)c1 [B-p] :: 2.70

Identify the measured pIC50 of O=C(O)Cc1cccc(-c2cc(CCCCCc3ccc(O[C@H]4O[C@H](CO)[C@@H](O)[C@H](O)[C@@H]4O)c(-c4cccc(CC(=O)O)c4)c3)ccc2O[C@H]2O[C@H](CO)[C@@H](O)[C@H](O)[C@@H]2O)c1 [Compound A-5] for P-selectin (Homo sapiens, UniProt P16109).
3.52

Identify the measured pIC50 of O=C(O)Cc1cccc(-c2cc(CCCSCCCSCCCc3ccc(O[C@H]4O[C@H](CO)[C@@H](O)[C@H](O)[C@@H]4O)c(-c4cccc(CC(=O)O)c4)c3)ccc2O[C@H]2O[C@H](CO)[C@@H](O)[C@H](O)[C@@H]2O)c1 [D] for P-selectin (Homo sapiens, UniProt P16109).
3.30

Identify the measured pIC50 of O=C(O)Cc1cccc(-c2cc(C(=O)CCCCC(=O)c3ccc(O[C@H]4O[C@H](CO)[C@@H](O)[C@H](O)[C@@H]4O)c(-c4cccc(CC(=O)O)c4)c3)ccc2O[C@H]2O[C@H](CO)[C@@H](O)[C@H](O)[C@@H]2O)c1 [F] for P-selectin (Homo sapiens, UniProt P16109).
3.00

Identify the measured pIC50 of O=C(O)Cc1cccc(-c2cc(Cc3cc(Cc4ccc(O[C@H]5O[C@H](CO)[C@@H](O)[C@H](O)[C@@H]5O)c(-c5cccc(CC(=O)O)c5)c4)cc(Cc4ccc(O[C@H]5O[C@H](CO)[C@@H](O)[C@H](O)[C@@H]5O)c(-c5cccc(CC(=O)O)c5)c4)c3)ccc2O[C@H]2O[C@H](CO)[C@@H](O)[C@H](O)[C@@H]2O)c1 [H] for P-selectin (Homo sapiens, UniProt P16109).
3.70

Identify the measured pIC50 of O=C(O)Cc1cccc(-c2cc(CCCCCCCc3ccc(O[C@H]4O[C@H](CO)[C@@H](O)[C@H](O)[C@@H]4O)c(-c4cccc(CC(=O)O)c4)c3)ccc2O[C@H]2O[C@H](CO)[C@@H](O)[C@H](O)[C@@H]2O)c1 [Compound A-7] for P-selectin (Homo sapiens, UniProt P16109).
3.40

Identify the measured pIC50 of O=C(O)Cc1cccc(-c2cc(CCCCCCCCCc3ccc(O[C@H]4O[C@H](CO)[C@@H](O)[C@H](O)[C@@H]4O)c(-c4cccc(CC(=O)O)c4)c3)ccc2O[C@H]2O[C@H](CO)[C@@H](O)[C@H](O)[C@@H]2O)c1 [Compound A-9] for P-selectin (Homo sapiens, UniProt P16109).
3.00
